assay: Stability of analytes in whole blood samples; type: in vitro ADME, rat; conditions: Long-term (−70°C, 4 months), high concentration 190–320 ng/ml (1 µM), n = 6
Measured Stability Bias (%), listed per entry for reference.
Use % as the unit, but write only the number.

### Prompt Consider the molecule shown here: COC(=O)[C@H]1[C@@H](OC(=O)c2ccccc2)C[C@@H]2CC[C@H]1N2 [Norcocaine, norcocaine] What is its recorded Stability Bias (%)?
### Response −1.4

### Prompt Follow-up item: CN1[C@H]2CC[C@@H]1[C@@H](C(=O)O)[C@@H](OC(=O)c1ccccc1)C2 [BE, benzoylecgonine]
### Response 3.8

### Prompt Follow-up item: COC(=O)[C@@H]1[C@H]2CC[C@@H](C[C@@H]1O)N2C [EME, ecgonine methyl ester]
### Response 3.5

### Prompt Follow-up item: CCOC(=O)[C@H]1[C@@H](OC(=O)c2ccccc2)C[C@@H]2CC[C@H]1N2 [Norcocaethylene, norcocaethylene]
### Response 2.8

### Prompt Follow-up item: COC(=O)[C@H]1[C@@H](OC(=O)c2ccccc2)C[C@@H]2CC[C@H]1N2C [Cocaine]
### Response −3.1

### Prompt Follow-up item: CCOC(=O)[C@@H]1[C@H]2CC[C@@H](C[C@@H]1O)N2C [EEE, ecgonine ethyl ester]
### Response −5.2

### Prompt Follow-up item: CCOC(=O)[C@@H]1C2CCC(C[C@@H]1OC(=O)c1ccccc1)N2C (stereo partly drawn) [Cocaethylene, cocaethylene]
### Response −0.6

### Prompt Follow-up item: CCOC(=O)[C@H]1[C@@H](O)C[C@@H]2CC[C@H]1N2 [NEEE, norecgonine ethyl ester]
### Response −11.9

### Prompt Follow-up item: COC(=O)[C@H]1[C@@H](O)C[C@@H]2CC[C@H]1N2 [NEME, norecgonine methyl ester]
### Response −8.7

* * *

Measured Stability Bias (%), listed per entry for reference.
test: Stability of analytes in whole blood samples; type: in vitro ADME, rat; conditions: Bench top (4 hours, room temperature), low concentration 1.9–3.2 ng/ml (0.01 µM), n = 6
Use % as the unit, but write only the number.

Here are 3 compounds together with their reported answers.
{"columns": ["SMILES CODE", "UNIT ABBREVIATION", "Stability Bias (%)"],
 "data": [
  ["COC(=O)[C@H]1[C@@H](OC(=O)c2ccccc2)C[C@@H]2CC[C@H]1N2", "%", "−1.1"],
  ["COC(=O)[C@H]1[C@@H](OC(=O)c2ccccc2)C[C@@H]2CC[C@H]1N2C", "%", 2.3],
  ["COC(=O)[C@H]1[C@@H](O)C[C@@H]2CC[C@H]1N2", "%", "−14.3"]
]}

Lab note: next compound to report on.
### Prompt Consider the compound shown here: COC(=O)[C@@H]1[C@H]2CC[C@@H](C[C@@H]1O)N2C What is its recorded Stability Bias (%)?
### Response −9.6

* * *

Measured Stability Bias (%), listed per entry for reference.
test: Stability of analytes in whole blood samples; assay type: in vitro ADME, rat; conditions: Freeze-thaw (4 cycles), high concentration 190–320 ng/ml (1 µM), n = 6
Use % as the unit, but write only the number.

{"columns": ["COMPOUND", "Stability Bias (%)"],
 "data": [
  ["CCOC(=O)[C@H]1[C@@H](OC(=O)c2ccccc2)C[C@@H]2CC[C@H]1N2 [Norcocaethylene, norcocaethylene]", "−6.4"],
  ["CCOC(=O)[C@@H]1C2CCC(C[C@@H]1OC(=O)c1ccccc1)N2C (stereo partly drawn) [Cocaethylene, cocaethylene]", "−4.1"],
  ["COC(=O)[C@H]1[C@@H](O)C[C@@H]2CC[C@H]1N2 [NEME, norecgonine methyl ester]", 0.1],
  ["COC(=O)[C@H]1[C@@H](OC(=O)c2ccccc2)C[C@@H]2CC[C@H]1N2C [Cocaine]", "−4.7"]
]}

### Prompt Consider the compound shown here: CCOC(=O)[C@@H]1[C@H]2CC[C@@H](C[C@@H]1O)N2C [EEE, ecgonine ethyl ester] What is its recorded Stability Bias (%)?
### Response 9.4

### Prompt Follow-up item: CCOC(=O)[C@H]1[C@@H](O)C[C@@H]2CC[C@H]1N2 [NEEE, norecgonine ethyl ester]
### Response 6.5

### Prompt Follow-up item: CN1[C@H]2CC[C@@H]1[C@@H](C(=O)O)[C@@H](OC(=O)c1ccccc1)C2 [BE, benzoylecgonine]
### Response 3.4

### Prompt Follow-up item: COC(=O)[C@H]1[C@@H](OC(=O)c2ccccc2)C[C@@H]2CC[C@H]1N2 [Norcocaine, norcocaine]
### Response −1.2

### Prompt Follow-up item: COC(=O)[C@@H]1[C@H]2CC[C@@H](C[C@@H]1O)N2C [EME, ecgonine methyl ester]
### Response 4.0
